# Test system: Fer (mouse);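 further: 11-residue human phosphosite peptides and single-mutation variants displayed on the E. coli surface, counted by deep sequencing, each peptide's frequency after selection divided by its frequency in the unselected input library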;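 further: frequency after pTyr selection over input frequency; kinase dosed for 20-30% of maximal phosphorylation in three min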
# Procedure Details: phosphorylation enrichment, bacterial display (enrichment ratio); higher = better substrate or ligand; peptides without Tyr show the background
The recorded phosphorylation enrichment of each item maps onto one of these classes: lower level: < 0.4; middle level: ≥ 0.4 and < 0.6; upper level: ≥ 0.6

>  <Seq String>
AHLLQYNHRVK [LGALS3_Y221]

>  <Group>
lower level

$$$$

Exercise: Place this sequence in its band: AVSHRYDLGGL [QPRT_Y162_A158V]
Key: lower level

Exercise: Thanks! And ESMLRYEVFGG [STOX1_Y607_YF] ?
Key: lower level

====

# Target Of Assay: SHP2-C SH2;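 further: peptide library displayed on the E. coli surface as eCPX fusions, selected cells deep-sequenced, score is each peptide's frequency after selection divided by its frequency in the input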
# Procedure Details: SH2 binding enrichment of the phosphorylated peptide, bacterial display (enrichment ratio); higher = better substrate or ligand; peptides without Tyr show the background
Think of 0.7 as a floor: if SH2 binding enrichment stands on it or above, it is t; beneath it, f.

Please review the following examples before continuing.
>  <Seq String>
LVVFEYMRHGD [NTRK1_Y591_M587V]

>  <Group>
t

$$$$
>  <Seq String>
DFFDLYGGQKF [PTPN11_Y66_E69Q_YF]

>  <Group>
f

$$$$

Exercise: Check the entry KNNDGYTDFAE [MCFD2_Y135_I136T_YF] : does SH2 binding enrichment equal or exceed 0.7?
Key: t

Exercise: And RTLSEYARPHV [RERE_Y1259] ?
Key: f

Exercise: What do we get for QKKEEYKMALY [F8_Y1990_R1985Q] ?
Key: f

Exercise: Same thing, different sequence: RALRHYYKLNI [ETV6_Y401]
Key: t

Exercise: // query: RGDVIYKGFED [NFU1_Y194_G189R]
Key: f

Exercise: TVFENYVADIE [RHOA_Y42] , same question.
Key: f

Exercise: Param item: HLWRIYYDITD [MMP27_Y307]
Key: t
